melting point by entry:

stdin: # melting point lookup, item O=C(Cc1ccccc1F)NC(C(=O)O)c1coc2cc(Br)ccc12 (stereo not drawn)
stdout: 209 to 211 °C

stdin: What value of measured melting point is listed for CC(=O)NC(C(=O)O)c1coc2cc(Br)ccc12 (stereo not drawn) ?
stdout: 194 to 196 °C

stdin: Fill in the blank: the reported melting point of CS(=O)(=O)NC(C(=O)O)c1coc2cc(Br)ccc12 (stereo not drawn) is ____.
stdout: 140 to 142 °C

stdin: Which value of melting point has been reported for COc1ccc(Nc2ccc3c(CC(=O)O)coc3c2)cc1 in the records?
stdout: 120 to 122 °C

stdin: Requested field: melting point. Item: O=C(O)Cc1coc2ccc(OCc3ccccc3)cc12
stdout: 147 to 149 °C

###

tested-target: EcDsbA (Escherichia coli)
Construct: made in house; protein recovered from the periplasm of the expressing cells
assay-explanation: STD ligand-detected NMR binding
condition-set: compound 500 µM, unlabelled EcDsbA 10 µM, 298 K
Procedure: To validate the binding of benzofuran analogues, three ligand-detected NMR methods, saturation-transfer difference (STD), Carr–Purcell–Meiboom–Gill (CPMG), and water–ligand observed via gradient spectroscopy (waterLOGSY), were employed to detect protein-ligand binding between the benzofurans and EcDsbA (Figure 2C). […] For ligand-detected NMR spectroscopy, two samples (compound alone and compound + protein) were prepared for each compound. […]
reported-metric: STD

compound="CS(=O)(=O)NC(C(=O)O)c1coc2cc(Br)ccc12 (centres unmarked)" measurement=Pass
compound=Brc1ccc2c(Cc3nnn[nH]3)coc2c1 measurement=Pass
compound="CC(=O)NC(C(=O)O)c1coc2cc(Br)ccc12 (centres unmarked)" measurement=Fail
compound=CC(C)COc1ccc2c(CC(=O)O)coc2c1 measurement=Fail

stdin: Quick check: STD of O=C(O)Cc1coc2cc(OCc3ccccc3)ccc12 ?
stdout: Pass

###

tested-target: EcDsbA (Escherichia coli)
Construct: made in house; protein recovered from the periplasm of the expressing cells
assay-explanation: CPMG ligand-detected NMR binding
condition-set: compound 500 µM, unlabelled EcDsbA 10 µM, 298 K, spin-lock 350 ms
reported-metric: CPMG

Recorded CPMG, per entry:
molecule=O=C(O)Cc1c[nH]c2cc(-c3ccccc3)ccc12 reported_metric=CPMG measurement=Pass
molecule=Brc1ccc2c(Cc3nnn[nH]3)coc2c1 reported_metric=CPMG measurement=Pass
molecule="CC(=O)NC(C(=O)O)c1coc2cc(Br)ccc12 (stereo not drawn)" reported_metric=CPMG measurement=Fail
molecule=O=C(O)Cc1coc2cc(Nc3ccccc3)ccc12 reported_metric=CPMG measurement=Pass

stdin: Need CPMG of O=C(Cc1ccccc1F)NC(C(=O)O)c1coc2cc(Br)ccc12 (stereo not drawn) , thanks.
stdout: Fail

stdin: What value of CPMG has been reported for the following molecule? CS(=O)(=O)NC(C(=O)O)c1coc2cc(Br)ccc12 (stereo not drawn)
stdout: Pass

###

tested-target: EcDsbA (Escherichia coli)
Construct: made in house; protein recovered from the periplasm of the expressing cells
assay-explanation: STD ligand-detected NMR binding
condition-set: compound 500 µM, unlabelled EcDsbA 10 µM, 298 K
reported-metric: STD

compound=CCCCOc1ccc2c(CC(=O)O)coc2c1 measurement=Pass
compound="O=C(NC(C(=O)O)c1coc2cc(Br)ccc12)c1ccccc1 (stereo not shown)" measurement=Fail
compound=COc1ccc(Nc2ccc3c(CC(=O)O)coc3c2)cc1 measurement=Fail
compound=O=C(O)Cc1coc2cc(Oc3ccccc3)ccc12 measurement=Pass

stdin: What STD value was documented for this compound, O=C(O)Cc1c[nH]c2cc(-c3ccccc3)ccc12 ?
stdout: Pass

stdin: Find the recorded STD belonging to O=C(O)Cc1coc2cc(Nc3ccccc3)ccc12 and report it.
stdout: Pass

stdin: Recorded STD of O=C(O)Cc1coc2cc(Cc3ccccc3)ccc12 , please.
stdout: Pass

stdin: Which STD value belongs to COc1cccc(Oc2ccc3c(CC(=O)O)coc3c2)c1 ?
stdout: Pass

stdin: Look up STD: O=C(Cc1ccccc1F)NC(C(=O)O)c1coc2cc(Br)ccc12 (stereo not shown)
stdout: Fail

stdin: Which value of STD has been reported for COc1ccc(CC(=O)NC(C(=O)O)c2coc3cc(Br)ccc23)cc1 (stereo not shown) in the records?
stdout: Fail

###

tested-target: EcDsbA (Escherichia coli, UniProt P0AEG4)
Construct: made in house; protein recovered from the periplasm of the expressing cells
Sequence (P0AEG4 20-208): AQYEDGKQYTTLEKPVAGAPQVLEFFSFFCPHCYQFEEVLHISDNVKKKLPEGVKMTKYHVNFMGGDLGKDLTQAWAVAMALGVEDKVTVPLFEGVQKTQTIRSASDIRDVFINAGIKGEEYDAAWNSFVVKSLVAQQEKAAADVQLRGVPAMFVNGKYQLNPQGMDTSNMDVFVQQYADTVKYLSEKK
assay-explanation: waterLOGSY ligand-detected NMR binding
condition-set: compound 500 µM, unlabelled EcDsbA 10 µM, 298 K
reported-metric: wLOGSY

// known answers, use as guide
molecule=O=C(O)Cc1c[nH]c2cc(-c3ccccc3)ccc12 tested_target="EcDsbA (Escherichia coli, UniProt P0AEG4)" reported_metric=wLOGSY measurement=Pass
molecule=CC(C)COc1ccc2c(CC(=O)O)coc2c1 tested_target="EcDsbA (Escherichia coli, UniProt P0AEG4)" reported_metric=wLOGSY measurement=Fail
molecule=O=C(O)Cc1coc2cc(Nc3ccccc3)ccc12 tested_target="EcDsbA (Escherichia coli, UniProt P0AEG4)" reported_metric=wLOGSY measurement=Pass
molecule="O=C(NC(C(=O)O)c1coc2cc(Br)ccc12)c1ccccc1 (stereo not drawn)" tested_target="EcDsbA (Escherichia coli, UniProt P0AEG4)" reported_metric=wLOGSY measurement=Pass
molecule=COc1cccc(Oc2ccc3c(CC(=O)O)coc3c2)c1 tested_target="EcDsbA (Escherichia coli, UniProt P0AEG4)" reported_metric=wLOGSY measurement=Pass

Now turn to the next molecule.
stdin: Param item = O=C(O)Cc1coc2cc(Oc3ccccc3)ccc12 ; retrieve measured wLOGSY.
stdout: Pass

###

The following are reported Kd results, target or system 15N-labelled EcDsbA (Escherichia coli).
Kindly answer with a numeric value in µM, unit omitted.

Past entries and their recorded results:
compound="O=C(O)Cc1coc2cc(Oc3ccccc3)ccc12 [compound 25, 2-(6-Phenoxybenzofuran-3-yl)acetic acid]" measurement=326
compound="O=C(O)Cc1coc2cc(Cc3ccccc3)ccc12 [compound 28, 2-(6-Benzylbenzofuran-3-yl)acetic acid]" measurement=341
compound="COc1ccc(CC(=O)NC(C(=O)O)c2coc3cc(Br)ccc23)cc1 (centres unmarked) [compound 48]" measurement=1350
compound="CCCCOc1ccc2c(CC(=O)O)coc2c1 [compound 21, 2-(6-Butoxybenzofuran-3-yl)acetic acid]" measurement=1970
compound="O=C(O)Cc1coc2cc(OCc3ccccc3)ccc12 [compound 23]" measurement=820
compound="COc1ccc(Nc2ccc3c(CC(=O)O)coc3c2)cc1 [compound 16]" measurement=2700

stdin: Entry COc1cccc(Oc2ccc3c(CC(=O)O)coc3c2)c1 [compound 26] , system 15N-labelled EcDsbA (Escherichia coli): what Kd was measured?
stdout: 639

###

tested-target: EcDsbA (Escherichia coli, UniProt P0AEG4)
Construct: made in house; protein recovered from the periplasm of the expressing cells
assay-explanation: Compound soaking into EcDsbA crystals and X-ray diffraction
Type: binding
condition-set: crystals soaked with compound at 10 mM (5% DMSO) for 3–6 h
reported-metric: Crystal Structure in EcDsbA

Look over these answered cases.
compound=O=C(O)Cc1coc2cc(OCc3ccccc3)ccc12 measurement=Yes
compound="CC(=O)NC(C(=O)O)c1coc2cc(Br)ccc12 (centres unmarked)" measurement=No
compound=O=C(O)Cc1coc2cc(Nc3ccccc3)ccc12 measurement=Yes
compound=COc1ccc(Nc2ccc3c(CC(=O)O)coc3c2)cc1 measurement=Yes
compound="CS(=O)(=O)NC(C(=O)O)c1coc2cc(Br)ccc12 (centres unmarked)" measurement=Yes

stdin: State the recorded Crystal Structure in EcDsbA for this entry: O=C(NC(C(=O)O)c1coc2cc(Br)ccc12)c1ccccc1 (centres unmarked)
stdout: No

stdin: Looking for the measured Crystal Structure in EcDsbA of O=C(O)Cc1coc2cc(Cc3ccccc3)ccc12 , can you help?
stdout: Yes

stdin: So what's the measured Crystal Structure in EcDsbA for this one? CCCCOc1ccc2c(CC(=O)O)coc2c1
stdout: Yes

stdin: Would you mind telling me what Crystal Structure in EcDsbA value was observed for O=C(O)Cc1coc2cc(Oc3ccccc3)ccc12 ?
stdout: Yes

stdin: What Crystal Structure in EcDsbA value was documented for this compound, COc1ccc(CC(=O)NC(C(=O)O)c2coc3cc(Br)ccc23)cc1 (centres unmarked) ?
stdout: No

stdin: Param item = O=C(Cc1ccccc1F)NC(C(=O)O)c1coc2cc(Br)ccc12 (centres unmarked) ; retrieve measured Crystal Structure in EcDsbA.
stdout: No

stdin: # query: Crystal Structure in EcDsbA of entry CC(C)COc1ccc2c(CC(=O)O)coc2c1
stdout: Yes

###

tested-target: 15N-labelled EcDsbA (Escherichia coli, UniProt P0AEG4)
Construct: made in house; protein recovered from the periplasm of the expressing cells
assay-explanation: 2D 1H-15N HSQC chemical shift perturbation / titration
Assay type: binding
condition-set: LE = −RTln(KD)/HAC, 298 K
Recorded Ligand Efficiency values for a group of compounds are listed next.
Write down the numeric answer in kcal mol^−1 HAC^−1 and omit the unit.

compound=O=C(O)Cc1coc2cc(Cc3ccccc3)ccc12 reported_metric="Ligand Efficiency" measurement=0.24
compound=O=C(O)Cc1coc2cc(OCc3ccccc3)ccc12 reported_metric="Ligand Efficiency" measurement=0.20
compound=COc1ccc(Nc2ccc3c(CC(=O)O)coc3c2)cc1 reported_metric="Ligand Efficiency" measurement=0.16
compound=CCCCOc1ccc2c(CC(=O)O)coc2c1 reported_metric="Ligand Efficiency" measurement=0.20
compound=COc1cccc(Oc2ccc3c(CC(=O)O)coc3c2)c1 reported_metric="Ligand Efficiency" measurement=0.20

stdin: What measured Ligand Efficiency is associated with COc1ccc(CC(=O)NC(C(=O)O)c2coc3cc(Br)ccc23)cc1 (stereo not shown) on 15N-labelled EcDsbA (Escherichia coli, UniProt P0AEG4)?
stdout: 0.15

stdin: Identify the measured Ligand Efficiency of O=C(O)Cc1coc2cc(Oc3ccccc3)ccc12 for 15N-labelled EcDsbA (Escherichia coli, UniProt P0AEG4).
stdout: 0.24
